species on record: Rattus norvegicus; assay: Open TG-GATES - Regimen: Single; type: toxicity, organism-based, Sprague-Dawley; parameters: regimen Single, gender Male, age 6 weeks; conditions: in vivo, po, 100 mg/kg, 24 h, tissue Plasma, route gavage, dose level Low
measure_name: TG (mg/dL)
One number for each entry, in mg/dL.

Examples from the recorded data:
- compound: "CN(C)C(=N)N=C(N)N"
  unit_spec: "mg/dL"
  TG: 99
- compound: "O=NN1CCOCC1"
  unit_spec: "mg/dL"
  TG: 34.1
- compound: "CCC1(c2ccccc2)C(=O)NC(=O)NC1=O"
  unit_spec: "mg/dL"
  TG: 105.4

Now for the compound whose TG we want.
Item: CN(C)CCC=C1c2ccccc2COc2ccccc21 [DOXEPIN] | TG: 101
